Attribute: standardized gMFI
- target desc: T1, 8A
- T1 construct: also called HLA-A2 / point-mutant NY-ESO peptide 8A complex on T2 cells
- procedure text: flow cytometry on peptide-pulsed T2 cells, scFv 100 nM

binder	standardized gMFI
NYA-2047 (scFv) scFv: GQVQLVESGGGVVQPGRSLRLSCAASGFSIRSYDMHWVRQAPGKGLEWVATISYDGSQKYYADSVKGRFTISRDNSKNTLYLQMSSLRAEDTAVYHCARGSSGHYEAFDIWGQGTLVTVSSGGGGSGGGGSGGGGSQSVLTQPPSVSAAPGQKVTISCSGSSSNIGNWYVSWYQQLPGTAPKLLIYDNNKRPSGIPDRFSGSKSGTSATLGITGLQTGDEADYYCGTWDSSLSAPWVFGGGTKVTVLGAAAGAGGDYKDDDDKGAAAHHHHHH	6.61
NYA-1143 (scFv) scFv: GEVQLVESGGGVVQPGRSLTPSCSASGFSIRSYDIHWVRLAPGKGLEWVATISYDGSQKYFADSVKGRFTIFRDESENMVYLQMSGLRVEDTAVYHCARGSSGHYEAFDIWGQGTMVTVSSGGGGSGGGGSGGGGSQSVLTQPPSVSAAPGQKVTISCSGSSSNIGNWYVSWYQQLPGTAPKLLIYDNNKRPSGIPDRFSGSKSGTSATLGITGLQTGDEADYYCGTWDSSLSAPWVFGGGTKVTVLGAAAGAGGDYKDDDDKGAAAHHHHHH	8.74
